Target: human CTLA-4 (Y166G and Y183G) expressed on CHO-K1.hCTLA-4 cells (human, UniProt P16410 36-223)
Sequence (P16410 36-223 Y201G/Y218G limits assumed): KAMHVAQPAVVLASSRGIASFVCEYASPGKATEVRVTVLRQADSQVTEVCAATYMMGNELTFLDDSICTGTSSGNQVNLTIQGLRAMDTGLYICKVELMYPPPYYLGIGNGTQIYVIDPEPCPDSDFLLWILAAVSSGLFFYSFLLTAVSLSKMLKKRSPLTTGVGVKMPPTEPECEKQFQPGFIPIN
Experiment: CELISA on CHO-K1.hCTLA-4 cells
PROPERTY_MEASURED: EC50 (pM)
Write down the numeric answer in pM and omit the unit.

binder hCTLA4.27H4L1 (antibody, human IgG4 S228P, kappa, V domains shown, Humanized, human IgG4 (S228P) kappa; H4 read as hCTLA4.27VH4, L1 as hCTLA4.27VL1) VH: EVQLVQSGAEVKKPGASVKVSCKASGYSFTTYWMNWVRQAPGQGLEWMGMIHPSDSETSLNQAFKDRVTMTRDTSTSTVYMELSSLRSEDTAVYYCARMGRRNPYYFDYWGQGTLVTVSS VL: DIQMTQSPSSLSASVGDRVTITCRPSENLYTNLAWYQQKPGKAPKLLLYGATNLADGVPSRFSGSGSGTDYTLTISSLQPEDFATYYCQHLWGTPFTFGQGTKLEIKR , EC50 observed: 70

binder hCTLA4.27H5L2 (antibody, human IgG4 S228P, kappa, V domains shown, Humanized, human IgG4 (S228P) kappa; H5 read as hCTLA4.27VH5, L2 as hCTLA4.27VL2) VH: EVQLLQAGAVLARPGTSVKISCKASGYSFTTYWMNWVKQRPGKGLEWIGMIHPSDSETSLNQAFKDKAKLTAATSASIAYLEFSSLTNEDSAVYYCARIGRRNPYYFDYWGQGTLVTVSS VL: DIQMTQSPSSLSASVGDRVTITCRPSENLYTNLAWYQQKPGKAPKLLIYGATNLADGVPSRFSGSGSGTEFSLSISSLQPEDFATYYCQHLWGTPFTFGGGTKVEIKR , EC50 observed: 42

binder hCTLA4.27H3L3 (antibody, human IgG4 S228P, kappa, V domains shown, Humanized, human IgG4 (S228P) kappa; H3 read as hCTLA4.27VH3, L3 as hCTLA4.27VL3) VH: EVQLVQSGAVVAKPGSSVKVSCKASGYSFTTYWMNWVRQAPGQGLEWMGMIHPSDSETSLNQAFKDRVTITADKSTSTAYMELSSLTSEDTAVYYCARMGRRNPYYFDYWGQGTTVTVSS VL: DIQMTQSPSSLSASVGDTVTITCRPSENLYTNLAWYQQKPGKAPKLLLYGATNLADGVPSRFSGSGSGTDYTLTISSLQSEDFATYYCQHLWGTPFTFGQGTKLEIKR , EC50 observed: 101
